System: Plasmodium falciparum
Test: Calibr Malaria Delayed Death Assay SOP
Format: functional, organism-based
Set-up: scale not given: in the data most compounds retested in dose-response had high values
Details: concentration 4.99e-06 (unit not given; other assays of the set use mol/L)
About 1,200 (3.2%) of roughly 38,000 compounds showed an effect of 50% or more. The median lay at about -58%. This is one part of a sample in which strong results are shown more often than they occur.
Percent Effect vs -60%: less than gives MET; not less than gives NOT MET.

Record Fc1ccc(C2(CNCCc3cccs3)CCOC2)cc1 (centres undefined) : is its Percent Effect strictly below -60%?
NOT MET

Decide: Percent Effect of NCC1Cc2cc(-c3cncc(C(=O)N4CCCCC4)n3)cc(F)c2O1 (centres undefined) strictly below -60%?
NOT MET

Confirm or reject: Percent Effect of CN1CCO[C@@H]2CN(S(=O)(=O)c3ccccc3)CC[C@@H]2C1.O=C(O)C(F)(F)F lies strictly below -60%
NOT MET

I wonder whether Cc1ccc2c(c1)CCC21CCN(CCO)CC1 has Percent Effect below -60%. Can you tell?
NOT MET

Is it true that Percent Effect reported for O=C(O)C(F)(F)F.OCCN1CCC2(CCc3cc(-c4ccoc4)ccc32)CC1 is less than -60%?
NOT MET

Record CN1CCO[C@@H]2CN(S(=O)(=O)c3cccnc3)C[C@@H]2C1.O=C(O)C(F)(F)F.O=C(O)C(F)(F)F : is its Percent Effect strictly below -60%?
MET

Please indicate whether the reported Percent Effect of Cc1cc(CN2CCN(c3ccc4nncn4n3)CC2)no1 is strictly below -60%.
NOT MET

Please determine if O=C(c1cncc(NCC2COc3ccccc3C2)n1)N1CCCC1 (centres undefined) is below -60% in terms of Percent Effect.
MET

Regarding Nc1cccnc1N1CCC(O)CC1 , kindly confirm whether its Percent Effect is beneath -60%.
MET

Dear reviewer, please state whether COc1ccc(-n2ncc(C(C)NC3Cc4ccccc4C3)c2C)cc1 (centres undefined) has Percent Effect strictly beneath -60%.
NOT MET

Confirm or reject: Percent Effect of O=C(O)C(F)(F)F.c1cncc(-c2ccc3c(c2)C2(CC3)CCN(c3nncs3)CC2)c1 lies strictly below -60%
NOT MET

# check: Percent Effect < -60% for CC(NCc1ccc(F)cc1)c1ccc2[nH]c(=O)[nH]c2c1 (centres undefined)
NOT MET

Regarding COc1ccc(S(=O)(=O)N2C[C@@H]3CN(C)CCO[C@@H]3C2)cc1 , kindly confirm whether its Percent Effect is beneath -60%.
NOT MET

For this compound, is Percent Effect lower than -60%? Cc1c[nH]c(CN2CCCCC2CCn2ccnc2C)c(C)c1=O (centres undefined)
MET

Hello, I'm reviewing records and need to know if Percent Effect of CCN(C)S(=O)(=O)NCC1(c2cccc(Br)c2)CC1 is below -60%. Could you check?
MET

Strictly below -60%: is that where Percent Effect of CN1CCO[C@@H]2CN(S(=O)(=O)c3ccccc3F)CC[C@@H]2C1.O=C(O)C(F)(F)F sits?
NOT MET

Percent Effect under -60%? Item: CC(C)N1CCO[C@@H]2CN(S(=O)(=O)c3cccs3)CC[C@@H]2C1.O=C(O)C(F)(F)F
NOT MET

Hi there! Is Percent Effect for c1ccc(CCN2CCN(c3ccc4nncn4n3)CC2)nc1 below -60%, do you know?
MET

Is the reported Percent Effect for FC(F)(F)c1cccc(C2(CNCc3ccncc3)CCOCC2)c1 strictly below -60%?
NOT MET

Item O=C(CCO)N1CCC2(CCc3ccc(-c4ccoc4)cc32)CC1 : Percent Effect beneath -60%, strictly?
MET

State whether -60% exceeds Percent Effect recorded for CN1CCO[C@@H]2CN(S(=O)(=O)c3cccs3)CC[C@@H]2C1.O=C(O)C(F)(F)F .
NOT MET

Given the entry CCn1cc(-c2nn3c(C(C)C)nnc3s2)c(C)n1 , would its reported Percent Effect be below -60%?
MET

Is -60% strictly greater than the compound's reported Percent Effect? compound: Cn1ccnc1CCC1CCCCN1Cc1nccn1C (centres undefined)
NOT MET

is_below(Percent Effect, -60%) for Cc1c(C(C)N)cnn1-c1ccccn1 (centres undefined) ?
MET

API: query returns whether the compound falls strictly under -60% in Percent Effect. Query: O=C(NCC1CCOCC1)c1cc(-c2ccc3c(c2)CCO3)n[nH]1
NOT MET

Percent Effect strictly < -60% for this compound? Clc1ccc(OCCNC2(c3ccc(Br)cc3)CCOCC2)cc1
NOT MET

For CSCCN1C(=O)CC(C)(c2ccc(Br)cc2)C1=O (centres undefined) , is the recorded Percent Effect below the cut-off of -60%?
MET

Input O=S(=O)(NCC(O)c1cccs1)c1ccccc1Cl (centres undefined) ; condition: Percent Effect strictly below -60%. Does it hold?
NOT MET

Please indicate whether the reported Percent Effect of Cc1c(C(C)N)cnn1-c1cccc2ccccc12 (centres undefined) is strictly below -60%.
NOT MET

Lab note: Percent Effect threshold -60%. Does this compound come in strictly under it? CC(=O)N1CCN2C[C@H](CO)[C@@H](c3ccccc3)[C@H]2C1
MET

Here's an entry: O=C(NCC(O)c1ccc(Cl)c(F)c1)NC1CC=CC1 (centres undefined) . Is its Percent Effect below -60%?
NOT MET

Strictly below -60% in Percent Effect? CC(=O)N1C[C@H](NS(=O)(=O)c2cccc(Cl)c2)[C@@H](C(C)C)C1
MET

For Cn1ncc2c(N[C@@H]3C[C@@H]4CC[C@H]3C4)nc(-c3ccncc3)nc21 , is the recorded Percent Effect below the cut-off of -60%?
MET

Below -60% on Percent Effect? Entry c1coc(-c2nnc(CN(Cc3cccs3)CC3CCCO3)o2)c1 (centres undefined)
NOT MET

Is Percent Effect strictly under -60% for the entry NCC1Cc2cc(-c3cncc(C(=O)N4CCOCC4)n3)cc(Cl)c2O1 (centres undefined) ?
NOT MET

Strictly below -60% in Percent Effect? COCCCOc1ccc(C(=O)N(C)Cc2cccc(O)c2)cn1
MET

Decide: Percent Effect of COc1ccc(S(=O)(=O)NCC(c2cccn2C)N(C)C)c(C)c1 (centres undefined) strictly below -60%?
NOT MET

Please let me know if COc1ccc([C@@H]2NC(=O)N[C@H]3OCCC[C@H]32)cc1 shows Percent Effect below -60%.
NOT MET

Lab log: compare recorded Percent Effect with -60%; is it strictly lower for COc1nc2c(cc1C(=O)N1CCCCC1c1ccccn1)CCC2 (centres undefined) ?
MET

Is the reported Percent Effect for Cc1ccc2c(c1)CCC21CCN(C(=O)CN(C)C)CC1.O=C(O)C(F)(F)F strictly below -60%?
NOT MET

Is the reported Percent Effect for CN1CCO[C@@H]2CN(S(=O)(=O)c3ccccc3)C[C@@H]2C1.O=C(O)C(F)(F)F strictly below -60%?
NOT MET

Input Clc1snnc1CN(Cc1cccs1)C1CC1 ; condition: Percent Effect strictly below -60%. Does it hold?
MET

Check if Percent Effect falls below -60% for COCC(=O)N1CCO[C@]2(CCC[C@H]2COC)C1 .
MET

* * *

System: Plasmodium falciparum
Experiment: Calibr Malaria Delayed Death Assay SOP
Assay type: functional, organism-based
Design: scale not given: in the data most compounds retested in dose-response had high values
Conditions: concentration 4.99e-06 (unit not given; other assays of the set use mol/L)
Out of some 38,000 compounds screened, about 1,200 (3.2%) showed an effect of 50% or more. The median lay at about -58%. Only a selection was taken, and strong results are over-represented in it overall.
class 1 means recorded Percent Effect is -80% or above; class 0 means it is below -80%.

Given the entry CC(C)Cc1ncc2c(n1)CN(c1cc(NC3CC3)nc(N)n1)C2 , answer whether its Percent Effect meets or surpasses -80%.
class 1

Has CCS(=O)(=O)N1CCN(Cc2cccnc2)c2nc(C)ccc2C1.O=C(O)C(F)(F)F.O=C(O)C(F)(F)F a recorded Percent Effect greater than or equal to -80%?
class 1

Entry CC(C)Nc1ccnc(N2Cc3cnc(C(C)(C)C)nc3C2)n1 : is its Percent Effect no less than -80%?
class 1

API: above_or_equal(metric=Percent Effect, cutoff=-80%) for item O=C(NCCc1ccncc1)[C@H]1C[C@@H]2CCN(c3nncs3)C[C@H]2O1
class 0

* * *

System: Plasmodium falciparum
Experiment: Calibr Malaria Delayed Death Assay SOP
Format: functional, organism-based
Set-up: scale not given: in the data most compounds retested in dose-response had high values
Conditions: concentration 4.99e-06 (unit not given; other assays of the set use mol/L)
The campaign covered roughly 38,000 compounds. About 1,200 (3.2%) showed an effect of 50% or more. The median lay at about -58%. The full list was thinned out, with strong results kept by preference.
Would you please tag the item Condition met when its Percent Effect is -80% or above, and Condition not met when it is below?

Would you say Fc1ccc(CN2CCC3(CC2)CCN(Cc2nccs2)CC3)cc1.O=C(O)C(F)(F)F.O=C(O)C(F)(F)F shows Percent Effect at minimum -80%?
Condition met

Could you tell me if the measured Percent Effect of O=C(O)C(F)(F)F.O=C(O)C(F)(F)F.c1cnc(N2CC3(CCN(Cc4ccncc4)C3)C2)nc1 reaches -80% or more?
Condition not met

# bool: Percent Effect of Fc1ccc(CN2CCC3(CC2)CCN(c2ncccn2)CC3)cc1.O=C(O)C(F)(F)F.O=C(O)C(F)(F)F >= -80%
Condition met

Reported Percent Effect at or above -80%? O=C(O)C(F)(F)F.O=C(O)C(F)(F)F.c1csc(CN2CCC3(CC2)CCN(CC2CC2)CC3)n1
Condition met

Reported Percent Effect reaches at least -80% for CS(=O)(=O)N1CCC2(CCN(Cc3nccs3)CC2)CC1.O=C(O)C(F)(F)F ?
Condition not met

Is reported Percent Effect greater than or equal to -80% here: CCS(=O)(=O)N1CCC2(CCN(Cc3nccs3)CC2)CC1.O=C(O)C(F)(F)F
Condition met

Decide: Percent Effect of Fc1ccc(CN2CCC3(CCN(Cc4nccs4)CC3)C2)cc1.O=C(O)C(F)(F)F.O=C(O)C(F)(F)F >= -80%?
Condition met

Entry source: ChEMBL document CHEMBL3988442
